Consider the following molecules and their measured pKd readings.
assaySystem: wild type human RORγt ligand binding domain (RORyt LBD) (Homo sapiens)
Construct: His-tag (N); TurboTEV protease cleavage site (ENLYFQG) (N)
assayInfo: RORγt ThermoFluor assay (thermal shift, binding affinity KD)
Give only the number. pKd is defined as minus log10 of concentration in molar units.

See these solved cases before continuing.
1. Cn1cncc1C(O)(c1ccc(Cl)cc1)c1ccc2nc(N3CCC3)c(Cc3ccc(-n4cccn4)cc3)c(Cl)c2c1 (single isomer, unassigned) [Example 138b] : 5.89
2. COc1nc2ccc(C(O)(c3oc(C)nc3C)c3cnnn3C)cc2c(Cl)c1Cc1ccc(C(F)(F)F)cc1 (stereo not shown) [Example 156a] : 9.20
3. COc1nc2ccc(C(O)(c3ncccn3)c3cncn3C)cc2c(Cl)c1Cc1ccc(-n2cccn2)cc1 (single isomer, unassigned) [Example 131b] : 5.05

Dear colleague, please send me the reported pKd for COc1nc2ccc(C(O)(c3cnnn3C)C3CN(C(N)=O)C3)cc2c(Cl)c1Cc1ccc(C(F)(F)F)cc1 (stereo not shown) when you can.
9.70

###

assaySystem: wild type human RORγt ligand binding domain (RORyt LBD) (Homo sapiens, UniProt P51449)
Construct: His-tag (N); TurboTEV protease cleavage site (ENLYFQG) (N)
Sequence (P51449 258-518): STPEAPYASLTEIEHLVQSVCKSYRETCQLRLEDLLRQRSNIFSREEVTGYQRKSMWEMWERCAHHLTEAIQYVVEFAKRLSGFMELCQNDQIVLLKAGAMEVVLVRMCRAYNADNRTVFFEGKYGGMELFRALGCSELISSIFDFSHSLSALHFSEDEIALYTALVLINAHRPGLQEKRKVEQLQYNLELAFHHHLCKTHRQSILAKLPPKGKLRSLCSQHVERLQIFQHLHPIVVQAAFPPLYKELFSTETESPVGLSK
assayInfo: RORγt ThermoFluor assay (thermal shift, binding affinity KD)
Catalogue of pKd values
When answering, recall that pKd equals minus log10 of the concentration in mol/L, and write that number alone.

Below, each entry is followed by its recorded pKd result.
1. COc1nc2ccc(C(O)(c3cncn3C)c3cnnn3C)cc2c(Cl)c1Cc1ccc(C(F)(F)F)cc1 (single isomer, unassigned) [Example 89b] : 8.92
2. COc1nc2ccc(C(O)(c3cnc(C)n3C)c3cnc(C)n3C)cc2c(Cl)c1Cc1ccccc1C(F)(F)F [Example 6] : 10.34
3. COc1nc2ccc(C(O)(c3cnnn3C)C3CN(C)C3)cc2c(Cl)c1Cc1ccc(C(F)(F)F)cc1 (single isomer, unassigned) [Example 90b] : 6.24
4. Cc1nc2ccc(C(O)(c3ccc(C(F)(F)F)nc3)c3cncn3C)cc2c(Cl)c1Cc1ccc(C(F)(F)F)cc1 (single isomer, unassigned) [Example 26c] : 9.11

Name the recorded pKd of the item Cn1cncc1C(O)(c1ccc2nc(Cl)c(Cc3ccc(-n4cccn4)cc3)c(Cl)c2c1)c1ncccn1 (stereo not drawn) [Example 130] in your answer.
6.19

Output pKd of COc1nc2ccc(C(O)(c3cnnn3C)c3cnc(C)n3C)cc2c(C#N)c1Cc1ccc(F)cc1 (single isomer, unassigned) [Example 66b]
8.96

###

Overview of recorded IC50 for various molecules
assaySystem: wild type human RORγt LBD (Homo sapiens, UniProt P51449)
Construct: expressed in transfected cells; host or cells: HEK293T
Sequence (P51449 258-518): as above
assayInfo: RORγt (LBD) Reporter Assay (GAL4-luciferase, HEK293T cells)
Type: cell-based
studyConditions: HEK293T cells
Report the figure in µM without appending any unit label.

1) Cn1cncc1C(O)(c1ccc(C(F)(F)F)nc1)c1ccc2nc(N3CCCC3)c(Cc3ccc(-n4cccn4)cc3)c(Cl)c2c1 (single isomer, unassigned) [Example 145b] : 0.23

Next:
Read off the recorded IC50 for COc1nc2ccc(C(O)(c3cccnc3)c3ccc(Cl)c(Cl)c3)cc2c(Cl)c1Cc1ccc(-n2cccn2)cc1 (single isomer, unassigned) [Example 161b]
0.16

###

assaySystem: wild type human RORγt LBD (Homo sapiens, UniProt P51449)
Construct: expressed in transfected cells; host or cells: HEK293T
assayInfo: RORγt (LBD) Reporter Assay (GAL4-luciferase, HEK293T cells)
Assay type: cell-based
studyConditions: HEK-293T, read-out: RORγt (LBD) Reporter Assay, % inhibition @ 6 µM, 6 µM compound concentration
metricName: inhibition at 6 µM (%)
Express your answer in %, writing the number without its unit.

Please review the following examples before continuing.
1. COc1nc2ccc(C(O)(c3ccccc3)C3CCN(C(C)=O)CC3)cc2c(Cl)c1Cc1ccc(C(F)(F)F)cc1 (single isomer, unassigned) [Example 69b] : 100
2. COc1nc2ccc(C(O)(c3ccc(Cl)cc3)c3cccnc3)cc2c(Cl)c1Cc1ccc(-n2cccn2)cc1 (stereo not drawn) : 107

Now, please, on to the next compound.
Give inhibition at 6 µM for CC(=O)N1CCC(C(O)(c2ccc(F)cc2)c2ccc3nc(OC(F)F)c(Cc4cncnc4)c(OC(F)F)c3c2)CC1 (stereo not drawn)
53

###

assaySystem: wild type human RORγt ligand binding domain (RORyt LBD) (Homo sapiens)
Construct: His-tag (N); TurboTEV protease cleavage site (ENLYFQG) (N)
assayInfo: RORγt ThermoFluor assay (thermal shift, binding affinity KD)
metricName: pKd
Friendly reminder that pKd comes from taking -log10 of the concentration in mol/L.

Some compounds with recorded pKd:
1. Cn1cncc1C(O)(c1ccc(Cl)cc1)c1ccc2nc(C(F)(F)F)c(Cc3ccccc3)c(O)c2c1 (stereo not shown) : 5.89
2. COc1ccc(C(O)(c2cccnc2)c2ccc3nc(OC)c(Cc4ccc(-n5cccn5)cc4)c(Cl)c3c2)cc1OC (single isomer, unassigned) [Example 159b] : 6.29
3. COc1nc2ccc(C(O)(c3ccccc3)C3CCN(C(C)=O)CC3)cc2c(Cl)c1Cc1ccc(C(F)(F)F)cc1 (single isomer, unassigned) [Example 69b] : 8.74
4. Cc1ccc(C(O)(c2ccc3nc(N4CCC4)c(Cc4ccc(-n5cccn5)cc4)c(Cl)c3c2)c2cnnn2C)c(C)n1 (stereo not shown) [Example 141a] : 4.96
5. CC(=O)N1CC(C(O)(c2ccc3nc(C)c(Cc4ccc(C(F)(F)F)cc4)c(Cl)c3c2)c2cnnn2C)C1 (single isomer, unassigned) [Example 32c] : 8.89

Give recorded pKd. COc1nc2ccc(C(O)(c3cnnn3C)C3CCOCC3)cc2c(Cl)c1Cc1ccc(C(F)(F)F)cc1 (single isomer, unassigned) [Example 85c]
8.55

Please give measured pKd of the following entry: Cn1cncc1C(O)(c1ccc2nc(C(F)(F)F)c(Cc3ccccc3)c(O)c2c1)c1ccccn1 (stereo not shown)
4.42

Please supply the value of reported pKd for the item COc1nc2ccc(C(O)(c3ccc(F)cc3)c3cncn3C)cc2c(Cl)c1Cc1ccc(-n2cccn2)cc1 (single isomer, unassigned) [Example 160c]
7.92

Identify measured pKd associated with COc1nc2ccc(C(O)(c3cnc(C)n3C)c3cnc(C)n3C)cc2c(Cl)c1Cc1ccc(F)cc1
10.00

###

assaySystem: wild type human RORγt LBD (Homo sapiens)
Construct: expressed in transfected cells; host or cells: HEK293T
assayInfo: RORγt (LBD) Reporter Assay (GAL4-luciferase, HEK293T cells)
Format: cell-based
studyConditions: HEK293T cells; value after the comma with ∼, > or < could not be included in the average
Listed here are compounds together with their documented pIC50.
Notebook: values listed as pIC50 are -log10 of the concentration (mol/L).

// known answers, use as guide
1) COc1nc2ccc(C(O)(c3cnnn3C)C3CCOCC3)cc2c(Cl)c1Cc1ccc(C(F)(F)F)cc1 (single isomer, unassigned) [Example 85c] : 7.77
2) COc1nc2ccc(C(O)(c3cnnn3C)C3CCN(C(C)=O)CC3)cc2c(Cl)c1Cc1ccc(C(F)(F)F)cc1 (single isomer, unassigned) [Example 74c] : 7.70
3) COCCOc1nc2ccc(C(O)(c3ccc(Cl)cc3)c3cncn3C)cc2c(Cl)c1Cc1ccc(-n2cccn2)cc1 (stereo not drawn) : 6.35
4) COc1nc2ccc(C(O)(c3ccc(C)nc3C)c3cnnn3C)cc2c(Cl)c1Cc1ccc(N(C)C)cc1 (stereo not drawn) [Example 24a] : 8.34
5) COc1nc2ccc(C(O)(c3ccc(Cl)cc3)c3cncn3C)cc2c(C#N)c1Cc1ccc(C(F)(F)F)cc1 (racemic) [Example 55a] : 7.49

State, for wild type human RORγt LBD (Homo sapiens), measured pIC50 of the compound listed here: COc1nc2ccc(C(O)(c3ccc(Cl)cc3)c3cncn3C)cc2c(C#N)c1Cc1ccc(C(F)(F)F)cc1 (single isomer, unassigned) [Example 55b]
6.30

Quote pIC50 with test system wild type human RORγt LBD (Homo sapiens) for COc1nc2ccc(C(O)(c3ccc(C)nc3C)c3cnnn3C)cc2c(Cl)c1Cc1ccc(-n2cncn2)cc1 (single isomer, unassigned) [Example 22b]
6.10

Consider the compound COc1c(Cc2ccccc2)c(C(F)(F)F)nc2ccc(C(O)(c3ccc(C(F)(F)F)nc3)c3cncn3C)cc12 (single isomer, unassigned) [Example 106b] tested on wild type human RORγt LBD (Homo sapiens); state its pIC50.
6.17

Recall the reported pIC50 of COc1nc2ccc(C(O)(c3ccc(C#N)cc3)c3cncn3C)cc2c(C#N)c1Cc1ccc(-n2cncn2)cc1 (single isomer, unassigned) [Example 15c] when tested on wild type human RORγt LBD (Homo sapiens).
7.55

Give pIC50 for this entry on wild type human RORγt LBD (Homo sapiens): COc1nc2ccc(C(O)(c3ccc(C#N)cc3)c3cncn3C)cc2c(Cl)c1Cc1ccc(C(F)(F)F)nc1 (stereo not drawn) [Example 38a]
8.72
